Source listed as patent US20240299385A1.

Overview of reported IC50 across a group of compounds:
Target: UniProtKB Q13304
Sequence (Q13304 whole entry): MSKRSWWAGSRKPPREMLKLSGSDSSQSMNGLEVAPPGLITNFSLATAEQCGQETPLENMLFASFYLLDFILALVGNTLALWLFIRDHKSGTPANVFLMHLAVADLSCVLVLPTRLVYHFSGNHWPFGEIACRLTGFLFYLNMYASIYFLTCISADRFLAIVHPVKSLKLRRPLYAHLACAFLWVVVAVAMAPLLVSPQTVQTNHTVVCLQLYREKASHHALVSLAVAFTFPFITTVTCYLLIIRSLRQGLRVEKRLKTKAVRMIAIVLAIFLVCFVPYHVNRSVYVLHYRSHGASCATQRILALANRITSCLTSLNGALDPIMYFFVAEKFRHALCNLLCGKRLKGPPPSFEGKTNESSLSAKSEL
Experiment: Calcium mobilization functional assay (Fluo-8, FLIPR TETRA) in HEK-293 hGPR17 (Gα-q assay)
Details: antagonism of MDL29,951 (~EC80) induced Ca2+ signal; cell line (HEK-293 hGPR17 or HEK-293 Suchi5 hGPR17) not given

Report IC50 for N#Cc1ccc(NS(=O)(=O)c2c[nH]c(-c3ccccc3)c2)cc1F tested on UniProtKB Q13304.
< 500 nM

Report IC50 for N#Cc1cc(F)c(NS(=O)(=O)c2c[nH]c(C3CCC3)c2)cc1F tested on UniProtKB Q13304.
< 500 nM

Report IC50 for O=S(=O)(Nc1cc(F)c(Br)cc1F)c1c[nH]c(-c2ccoc2)c1 tested on UniProtKB Q13304.
< 500 nM

Report IC50 for Cc1ccc(C)c(-c2cc(S(=O)(=O)Nc3ccc(C#N)cc3F)c[nH]2)c1 tested on UniProtKB Q13304.
< 500 nM

Report IC50 for O=S(=O)(Nc1ncc(Cl)cc1F)c1c[nH]c(-c2ccccc2)c1 tested on UniProtKB Q13304.
< 500 nM

Report IC50 for N#Cc1ccc(NS(=O)(=O)c2c[nH]c(-c3cc(F)ccc3Cl)c2)c(F)c1 tested on UniProtKB Q13304.
< 500 nM

Report IC50 for N#Cc1ccc(NS(=O)(=O)c2c[nH]c(-c3cccc(Cl)c3)c2)c(F)c1 tested on UniProtKB Q13304.
< 500 nM

Report IC50 for N#Cc1cc(F)c(NS(=O)(=O)c2c[nH]c(-c3ccc(F)cc3F)c2)cc1Cl tested on UniProtKB Q13304.
500 to 5000 nM

Report IC50 for Cn1cnc2c(-c3cc(S(=O)(=O)Nc4ccc(C#N)cc4F)c[nH]3)cccc21 tested on UniProtKB Q13304.
500 to 5000 nM
